Molecular target: T1, human TROP2 protein (Sino Biological, #10428-H08H) (human, UniProt P09758 27-274)
T1 construct: bought protein; also called human Trop2 protein antigen (His tag); not shown: His tag
T1 sequence (looked up): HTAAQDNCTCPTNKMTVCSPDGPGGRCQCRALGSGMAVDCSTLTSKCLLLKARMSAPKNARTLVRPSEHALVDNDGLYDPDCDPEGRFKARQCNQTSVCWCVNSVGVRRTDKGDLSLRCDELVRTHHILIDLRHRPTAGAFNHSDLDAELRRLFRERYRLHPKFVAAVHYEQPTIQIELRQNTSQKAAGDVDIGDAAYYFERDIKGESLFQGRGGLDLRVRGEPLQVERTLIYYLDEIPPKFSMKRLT
Experiment: BLI, Octet RED96, AHC sensor
Experimental Readout: koff (s⁻¹)
Field: numeric (s⁻¹). Do not append units.

Q. For the binder PR001150 (antibody, human IgG1, kappa, V domains shown, fully human IgG1/kappa; also called antibody No. (13)) VH: QVQLVESGGGVVQPEKSLRLSCAASGFTFSHYGMHWVRQVPGKGLEWVAVIWYDGIKRYYVESVKGRFTISRDNSKNTLYLQMNRLRAEDTAVYYCARDGGFGESNYYGLDVWGQGTTVTVSS VL: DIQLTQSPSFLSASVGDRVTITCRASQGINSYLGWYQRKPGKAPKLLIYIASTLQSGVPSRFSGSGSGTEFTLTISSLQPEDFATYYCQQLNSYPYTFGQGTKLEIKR , what koff is on record?
A. 5.25e-06

Q. Try this binder next: PR001156 (antibody, human IgG1, kappa, V domains shown, fully human IgG1/kappa; also called antibody No. (19)) VH: QVQLVESGGGVVQPGRSLRLSCEGSGFTFSHYGMHWVRQAPGKGLEWVAVIWYDGIKKNYVDSLKGRFTISRDNSKNTLYLQMNSLRAEDTAVYYCARDGGFGELNYYGMDVWGQGTTVTVSS VL: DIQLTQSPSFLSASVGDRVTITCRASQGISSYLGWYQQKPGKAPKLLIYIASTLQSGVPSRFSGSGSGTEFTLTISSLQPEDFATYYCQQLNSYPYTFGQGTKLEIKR
A. 1.67e-05
